biological target: ERβ (Homo sapiens, UniProt Q92731); assay: Radioligand competitive binding assay with [3H]E2 for ERβ (GST-ERβ-LBD); set-up: made in house; host or cells: Escherichia coli BL21α; conditions: competitive binding, [3H] 17β-estradiol as radioligand; mean ± SD; read-out: Binding affinity (IC50, nM) ERβ
Sequence (Q92731 263-530): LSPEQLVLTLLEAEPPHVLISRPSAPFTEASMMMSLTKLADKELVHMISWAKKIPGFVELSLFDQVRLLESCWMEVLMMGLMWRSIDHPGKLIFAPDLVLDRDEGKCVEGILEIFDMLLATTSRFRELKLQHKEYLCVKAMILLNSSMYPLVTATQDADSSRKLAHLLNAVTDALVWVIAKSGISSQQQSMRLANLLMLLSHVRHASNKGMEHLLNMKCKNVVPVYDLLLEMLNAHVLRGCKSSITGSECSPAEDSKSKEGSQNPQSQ
Property Label: IC50 (nM)

1 = Cc1cc(C2(c3ccc(O)c(C)c3)CCCCC2)ccc1O
2 = Cc1cc(C(c2ccccc2O)c2cc(C)c(O)c(C)c2C)c(C)c(C)c1O
3 = CCCCC(CC)C(c1ccc(O)cc1)c1ccc(O)cc1 (centres unmarked)
4 = Nc1cc(C(c2ccc(O)c(N)c2)(C(F)(F)F)C(F)(F)F)ccc1O
Query: List the items above again, this time ordered by increasing IC50. Ranked list of labels, please, in the requested order.
Reply: 3, 2, 1, 4
(3: 25.9 nM, 2: 41.5 nM, 1: 132 nM, 4: 224 nM)
